So I've got a bunch of molecules here, and I need their Total Cell Count values.
- System: U2OS
- protocol_details: Multiplex assay against U2OS
- Format: toxicity, cell-based
- study_conditions: human, 12 h, 1 µM, compound concentration 1 uM, replicate 2
No unit in the answer, only the number.

Prompt: Given the entry Cc1ccc(OCC(O)C(C)NC(C)C)c2c1CCC2.Cl (centres undefined) , report its measured Total Cell Count.
Response: 129

Prompt: Given the entry COc1cc2nc(N3CCN(C(=O)c4ccco4)CC3)nc(N)c2cc1OC.Cl [PRAZOSIN HYDROCHLORIDE] , report its measured Total Cell Count.
Response: 159

Prompt: Given the entry CC(C)C[C@H](CO)Nc1nc(S[C@@H](C)c2ccccc2)nc2nc(N)sc12 [AZD-8797] , report its measured Total Cell Count.
Response: 95

Prompt: Given the entry Cc1cc(-c2ccc3c(c2)CC[C@H]3N2CC3(CCN(C(=O)Cc4cn5cc(C)sc5n4)CC3)C2)ncn1 [PF-5190457] , report its measured Total Cell Count.
Response: 93

Prompt: Given the entry `Cc1sc2c(c1C)C(c1ccc(Cl)cc1)=N[C@H](CC(=O)OC(C)(C)C)c1nnc(C)n1-2` , report its measured Total Cell Count.
Response: 120

Prompt: Given the entry COCCCN1CCC(NC(=O)c2cc(Cl)c(N)c3c2OCC3)CC1 [PRUCALOPRIDE] , report its measured Total Cell Count.
Response: 110

Prompt: Given the entry O=c1ccc2ccc(OCCCCN3CCN(c4cccc5sccc45)CC3)cc2[nH]1 [BREXPIPRAZOLE] , report its measured Total Cell Count.
Response: 126

Prompt: Given the entry `CCc1nn2c(C)cc(C)nc2c1Cc1ccc(-c2nnc(C3CCNCC3)o2)cc1` , report its measured Total Cell Count.
Response: 110

Prompt: Given the entry `CN1CCC(C(=O)c2cccc(NC(=O)c3c(F)cc(F)cc3F)n2)CC1` , report its measured Total Cell Count.
Response: 89
